# assayed_target: UniProt P50406
# Sequence (P50406 whole entry): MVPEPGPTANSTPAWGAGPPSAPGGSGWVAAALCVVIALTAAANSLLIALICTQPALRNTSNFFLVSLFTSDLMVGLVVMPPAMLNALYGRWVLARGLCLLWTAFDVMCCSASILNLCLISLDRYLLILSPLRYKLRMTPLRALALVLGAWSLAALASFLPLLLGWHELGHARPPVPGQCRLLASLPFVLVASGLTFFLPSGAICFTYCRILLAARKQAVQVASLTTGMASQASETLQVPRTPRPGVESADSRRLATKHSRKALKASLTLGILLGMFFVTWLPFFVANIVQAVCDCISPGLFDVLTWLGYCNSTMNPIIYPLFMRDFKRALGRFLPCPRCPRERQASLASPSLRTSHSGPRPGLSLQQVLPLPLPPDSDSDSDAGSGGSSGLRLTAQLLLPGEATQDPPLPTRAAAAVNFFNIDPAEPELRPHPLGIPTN
# Format: cell membranes, HeLa, Membrane
# measurement_context: hela; further: in other assays of this panel Not Active means under 50% inhibition at 10 µM
Where a SMILES comes first, the peptide text is derived from it. Bridges are numbered along the chain shown (N, C = ends). [ ]: non-standard residue; d: D form. The star is where a group is joined. Ileψ(thiazoline)Cys = CC[C@H](C)[C@H](N)C1=N[C@H](C(=O)*)CS1; dOrn = NCCC[C@@H](N)C(=O)O
experimental_endpoint: IC50

{"compound": "CC1(C)S[C@@H]2[C@H](NC(=O)[C@H](N)c3ccc(O)cc3)C(=O)N2[C@H]1C(=O)O", "experimental_endpoint": "IC50", "recorded_value": "Not Active"}
{"compound": "CC[C@H](C)[C@H](N)C1=N[C@H](C(=O)N[C@@H](CC(C)C)C(=O)N[C@H](CCC(=O)O)C(=O)N[C@H](C(=O)N[C@H]2CCCCNC(=O)[C@H](CC(N)=O)NC(=O)[C@@H](CC(=O)O)NC(=O)[C@H](Cc3cnc[nH]3)NC(=O)[C@@H](Cc3ccccc3)NC(=O)[C@H]([C@@H](C)CC)NC(=O)[C@@H](CCCN)NC2=O)[C@@H](C)CC)CS1 [BACITRACIN] ({Ileψ(thiazoline)Cys}-L[dE]IK[dOrn]I[dF]H[dD]N; lactam 4-C)", "experimental_endpoint": "IC50", "recorded_value": "Not Active"}
{"compound": "COc1c(C)c2c(c(O)c1C/C=C(\\C)CCC(=O)OCCN1CCOCC1)C(=O)OC2 [MYCOPHENOLATE MOFETIL]", "experimental_endpoint": "IC50", "recorded_value": "Not Active"}
{"compound": "Nc1ccc(S(N)(=O)=O)cc1 [SULFANILAMIDE]", "experimental_endpoint": "IC50", "recorded_value": "Not Active"}
{"compound": "NS(=O)(=O)c1cc2c(cc1Cl)NCNS2(=O)=O [HYDROCHLOROTHIAZIDE]", "experimental_endpoint": "IC50", "recorded_value": "Not Active"}
{"compound": "Oc1c(Cl)cc(Cl)cc1Sc1cc(Cl)cc(Cl)c1O", "experimental_endpoint": "IC50", "recorded_value": "Not Active"}
{"compound": "CC[C@@]1(O)C(=O)OCc2c1cc1n(c2=O)Cc2cc3ccccc3nc2-1", "experimental_endpoint": "IC50", "recorded_value": "Not Active"}
{"compound": "CC(=O)O[C@]1(C(C)=O)CC[C@H]2[C@@H]3C=C(Cl)C4=CC(=O)CC[C@]4(C)[C@H]3CC[C@@]21C [CHLORMADINONE ACETATE]", "experimental_endpoint": "IC50", "recorded_value": "Not Active"}
{"compound": "CC(C)(C)NC(=O)[C@@H]1CN(Cc2cccnc2)CCN1C[C@@H](O)C[C@@H](Cc1ccccc1)C(=O)N[C@H]1c2ccccc2C[C@H]1O.O", "experimental_endpoint": "IC50", "recorded_value": "Not Active"}
{"compound": "O=[N+]([O-])c1cc([As](=O)(O)O)ccc1O", "experimental_endpoint": "IC50", "recorded_value": "Not Active"}

# batch: return IC50 for each of the 7 compounds below
1. NNC(=O)c1ccncc1
2. CC(=O)[C@@]1(O)CC[C@H]2[C@@H]3C[C@H](C)C4=CC(=O)C=C[C@]4(C)[C@@]3(F)[C@@H](O)C[C@@]21C
3. CC(/C=C1\SC(=S)N(CC(=O)O)C1=O)=C\c1ccccc1
4. CC(C)(S)[C@@H](N)C(=O)O
5. NC(=O)c1ccccc1O [SALICYLAMIDE]
6. CCOC(=O)OC(C)OC1=C(C(=O)Nc2ccccn2)N(C)S(=O)(=O)c2ccccc21 (configuration not stated)
7. C/C=C1\[C@H]2C=C(C)C[C@]1(N)c1ccc(=O)[nH]c1C2

["Not Active", "Not Active", "Not Active", "Not Active", "Not Active", "Not Active", "Not Active"]

# batch: return IC50 for each of the 2 compounds below
1. O=c1[nH]cc(F)c(=O)[nH]1
2. CCOC(=O)c1ccc(N)cc1

["Not Active", "Not Active"]

# batch: return IC50 for each of the 7 compounds below
1. Nc1nc2c(ncn2COC(CO)CO)c(=O)[nH]1
2. Cc1ncc([N+](=O)[O-])n1CC(C)O (configuration not stated)
3. N=C(N)NCCCCNC(=N)N.O=S(=O)(O)O [ARCAINE SULFATE]
4. CC(CCc1ccccc1)NCC(O)c1ccc(O)c(C(N)=O)c1 (configuration not stated)
5. NNc1ccccc1 [PHENYLHYDRAZINE]
6. CO[C@@H]1[C@@H](O[C@@H]2O[C@H](C)[C@@H](O[C@H]3C[C@@](C)(O)[C@@H](OC(=O)CC(C)C)[C@H](C)O3)[C@H](N(C)C)[C@H]2O)[C@@H](CC=O)C[C@@H](C)[C@@H](O)/C=C/C=C/C[C@@H](C)OC(=O)C[C@H]1O
7. Cc1ccccc1N1CCN(CCc2nnc3n2CCCC3)CC1

1: Not Active; 2: Not Active; 3: Not Active; 4: Not Active; 5: Not Active; 6: Not Active; 7: Not Active

# batch: return IC50 for each of the 2 compounds below
1. N#C[C@H](O[C@@H]1O[C@H](CO[C@@H]2O[C@H](CO)[C@@H](O)[C@H](O)[C@H]2O)[C@@H](O)[C@H](O)[C@H]1O)c1ccccc1
2. CC(C)(C)NCC(O)c1ccc(O)c(CO)c1 (configuration not stated)

Not Active
Not Active

Provenance of the data: ChEMBL document CHEMBL1909046
